Here the recorded OD450 is given for each entry.
Target: T1, murine TIM-3 protein with hFc tag (mTIM-3-hFc protein) (mouse; human, UniProt Q8VIM0 29-191)
T1 construct: Made in HEK293 cells; also called mouse TIM-3 extracellular domain protein; not shown: human IgG Fc fragment (hFc) of the pCpC vector
T1 chain: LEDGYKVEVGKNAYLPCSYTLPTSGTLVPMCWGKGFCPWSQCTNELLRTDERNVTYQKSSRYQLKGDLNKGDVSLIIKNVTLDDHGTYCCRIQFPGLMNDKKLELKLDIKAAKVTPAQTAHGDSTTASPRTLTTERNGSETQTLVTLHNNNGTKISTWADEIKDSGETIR
Assay: ELISA, coated mTIM-3-hFc; antibody 0.6667 nM
Would you mind answering with just the numeric figure?

134H3G6 (TIM-3 antibody purified from hybridoma, chimeric antibody of Example 2) (antibody, V domains shown, From hybridoma of Harbour H2L2 transgenic mice: human variable regions, rat constant regions) VH: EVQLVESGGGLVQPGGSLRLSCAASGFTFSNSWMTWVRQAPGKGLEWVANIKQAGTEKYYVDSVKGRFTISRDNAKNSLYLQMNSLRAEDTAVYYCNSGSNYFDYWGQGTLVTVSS VL: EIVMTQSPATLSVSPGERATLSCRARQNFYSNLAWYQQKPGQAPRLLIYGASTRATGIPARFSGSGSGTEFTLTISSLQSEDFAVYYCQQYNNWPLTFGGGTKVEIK	0.66
57F4E5 (TIM-3 antibody purified from hybridoma, chimeric antibody of Example 2) (antibody, V domains shown, From hybridoma of Harbour H2L2 transgenic mice: human variable regions, rat constant regions) VH: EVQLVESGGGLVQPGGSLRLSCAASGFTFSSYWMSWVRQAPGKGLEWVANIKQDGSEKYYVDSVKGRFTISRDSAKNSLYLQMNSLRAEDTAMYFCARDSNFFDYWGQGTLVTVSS VL: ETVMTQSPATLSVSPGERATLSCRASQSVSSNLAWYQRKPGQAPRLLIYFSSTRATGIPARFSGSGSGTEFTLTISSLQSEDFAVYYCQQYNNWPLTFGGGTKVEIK	0.64
39E5H1 (TIM-3 antibody purified from hybridoma, chimeric antibody of Example 2) (antibody, V domains shown, From hybridoma of Harbour H2L2 transgenic mice: human variable regions, rat constant regions) VH: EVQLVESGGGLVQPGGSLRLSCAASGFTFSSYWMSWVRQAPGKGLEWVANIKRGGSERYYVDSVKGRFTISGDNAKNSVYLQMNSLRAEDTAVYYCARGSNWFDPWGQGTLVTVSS VL: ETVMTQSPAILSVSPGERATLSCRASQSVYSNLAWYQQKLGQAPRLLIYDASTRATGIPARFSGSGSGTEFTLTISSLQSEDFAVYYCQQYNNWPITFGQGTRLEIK	0.66

Qu. Recorded OD450 for 7A4F10 (TIM-3 antibody purified from hybridoma, chimeric antibody of Example 2) (antibody, V domains shown, From hybridoma of Harbour H2L2 transgenic mice: human variable regions, rat constant regions) VH: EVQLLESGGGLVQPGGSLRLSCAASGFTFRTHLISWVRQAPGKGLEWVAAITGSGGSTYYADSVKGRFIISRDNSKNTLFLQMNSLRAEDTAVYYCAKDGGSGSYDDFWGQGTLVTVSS VL: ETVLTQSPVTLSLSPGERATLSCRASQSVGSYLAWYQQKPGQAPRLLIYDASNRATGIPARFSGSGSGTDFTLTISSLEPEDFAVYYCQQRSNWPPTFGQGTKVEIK , please?
Ans. 0.67
